- System name: T1, RSV postfusion F (postF), subtype A (respiratory syncytial virus, subtype A, UniProt P03420 26-513)
- T1 construct: also called F ΔFP; Postfusion subtype A
- Method description: BLI, IgG
Lab note: cut-off is 0.4 nM. Strictly less in Kd is class 1. Exactly 0.4 nM or more is class 0.

# input Is Kd strictly under 0.4 nM for the entry ADI-21019 (antibody, V domains shown) VH: EVQLLESGGGLVRPGGSLRLSCAVSGFTFSGNALTWIRRAPGKGLEWVSTIGDSGGGSYYADSVKGRFTISRDNSKSTLYLQMNSLTAEDTAVYYCARDPYGDYRDYYGIDVWGQGTTVTVSS VL: EIVMTQSPLSLPVTPGEPASISCRSSQSLRHSNGYNYVDWYLQKPGQSPQLLIYLGSNRASGVPDRFRGSGSGTDFTLKISRVEAEDVGVYYCMQALQTPLTFGQGTKVEIK ?
# output class 1

# input Is Kd strictly under 0.4 nM for the entry ADI-14589 (antibody, V domains shown) VH: QITLKESGPVLVKPSETLTLTCTVSGFSLSNAKMGVSWIRQPPGKALEWLAHIFSNDEKSYNTSLKNRLTISKDTSKSQVVLTMTNMDTVDTATYYCARINYYDSSGYYLANFDYWGQGTLVTVSS VL: NIRLTQSPSSLSASVGDRVTITCRASQRIASYLNWYQQKPGHAPKLLIHAASSLQSGVPSRFSGSGSGTDFTLTINSLLPEDFATYYCQQSYSSPPHSSPPLTFGGGTKVEIK ?
# output class 0

# input Is Kd strictly under 0.4 nM for the entry ADI-21062 (antibody, V domains shown, also called Ab 310) VH: EVQLLESGGGLVKPGGSLRLSCAASGFTFSDYDMIWVRQAPGKGLEWVSSISRGSDYIYYADSLKGRFTISRDNARNSVTLQMNSLRAGDTALYFCARAELLDSGGYYLYYFDHWGQGTLVTVSS VL: DIRMTQSPSSLSASVGDRVTITCRASQIIASYVNWYQKKPGKAPKVLIYAASRLQNGVPSRFSGSGSGTEFTLTISSLQPEDFATYYCQQSYSTSFTFGQGTKVDIK ?
# output class 1

# input Is Kd strictly under 0.4 nM for the entry ADI-20963 (antibody, V domains shown) VH: EVQLVESGGGLAKPGGSLRLSCAASGFTFSHYNMNWVRQAPGKGLEWVSSISSTGFHIYYADSVKGRFVISRDNAENSLHLQMNSLRADDTGLYYCVRAEYYYGSGSAGHYFDSWGQGTLVTVSS VL: SYVLTQPPSVSVAPGHTAKITCGGSIIGTKSVHWYQQKPGQAPVLVVYDDSDRPSGIPERLSGSRSGNTATLTITRVEAGDEADYYCQVWDSSSEHAGVFGGGTKLTVL ?
# output class 1

Values were extracted from patent US20260258115A1.
